assay method text: total protein half-life in vivo (active degradation + dilution); higher = more stable protein
experimental context: wild type E. coli NCM3722; growth: N-lim chemostat; doubling time 12 h
Categories are defined by ranges of total protein half-life in vivo, namely lower band (below 3 h), central band (3 h to below 8 h), upper band (8 h or more)

Band for `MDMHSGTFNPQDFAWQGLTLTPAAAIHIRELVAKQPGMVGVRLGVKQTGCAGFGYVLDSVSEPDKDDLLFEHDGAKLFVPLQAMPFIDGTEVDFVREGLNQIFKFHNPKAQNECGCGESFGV` ?
lower band

Into which bin does this sequence go? `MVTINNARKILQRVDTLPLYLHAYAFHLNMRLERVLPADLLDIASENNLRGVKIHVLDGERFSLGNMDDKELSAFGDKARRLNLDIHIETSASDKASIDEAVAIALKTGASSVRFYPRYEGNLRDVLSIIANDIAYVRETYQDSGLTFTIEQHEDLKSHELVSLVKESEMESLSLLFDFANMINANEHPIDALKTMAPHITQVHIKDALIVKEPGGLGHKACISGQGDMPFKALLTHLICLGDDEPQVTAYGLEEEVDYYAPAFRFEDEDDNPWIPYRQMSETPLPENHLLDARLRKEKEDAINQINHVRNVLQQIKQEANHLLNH`
central band

Lab log: MIIGNIHNLQPWLPQELRQAIEHIKAHVTAETPKGKHDIEGNRLFYLISEDMTEPYEARRAEYHARYLDIQIVLKGQEGMTFSTQPAGAPDTDWLADKDIAFLPEGVDEKTVILNEGDFVVFYPGEVHKPLCAVGAPAQVRKAVVKMLMA [P0AF96] — assign total protein half-life in vivo category
central band

Determine which band this sequence sits in: MQKEQLSALMDGETLDSELLNELAHNPEMQKTWESYHLIRDSMRGDTPEVLHFDISSRVMAAIEEEPVRQPATLIPEAQPAPHQWQKMPFWQKVRPWAAQLTQMGVAACVSLAVIVGVQHYNGQSETSQQPETPVFNTLPMMGKASPVSLGVPSEATANNGQQQQVQEQRRRINAMLQDYELQRRLHSEQLQFEQAQTQQAAVQVPGIQTLGTQSQ [P0AFX7]
lower band

Pick a category. Item: MQFSKMHGLGNDFMVVDAVTQNVFFSPELIRRLADRHLGVGFDQLLVVEPPYDPELDFHYRIFNADGSEVAQCGNGARCFARFVRLKGLTNKRDIRVSTANGRMVLTVTDDDLVRVNMGEPNFEPSAVPFRANKAEKTYIMRAAEQTILCGVVSMGNPHCVIQVDDVDTAAVETLGPVLESHERFPERANIGFMQVVKREHIRLRVYERGAGETQACGSGACAAVAVGIQQGLLAEEVRVELPGGRLDIAWKGPGHPLYMTGPAVHVYDGFIHL [P0A6K1]
upper band

Others:
// bin(item) where item = `MRVLIVKTSSMGDVLHTLPALTDAQQAIPGIKFDWVVEEGFAQIPSWHAAVERVIPVAIRRWRKAWFSAPIKAERKAFREALQAENYDAVIDAQGLVKSAALVTRLAHGVKHGMDWQTAREPLASLFYNRKHHIAKQQHAVERTRELFAKSLGYSKPQTQGDYAIAQHFLTNLPTDAGEYAVFLHATTRDDKHWPEEHWRELIGLLADSGIRIKLPWGAPHEEERAKRLAEGFAYVEVLPKMSLEGVARVLAGAKFVVSVDTGLSHLTAALDRPNITVYGPTDPGLIGGYGKNQMVCRAPRENLINLNSQAVLEKLSSL`
upper band

Band assignment needed for `MNDIAHNLAQVRDKISAAATRCGRSPEEITLLAVSKTKPASAIAEAIDAGQRQFGENYVQEGVDKIRHFQELGVTGLEWHFIGPLQSNKSRLVAEHFDWCHTIDRLRIATRLNDQRPAELPPLNVLIQINISDENSKSGIQLAELDELAAAVAELPRLRLRGLMAIPAPESEYVRQFEVARQMAVAFAGLKTRYPHIDTLSLGMSDDMEAAIAAGSTMVRIGTAIFGARDYSKK` please.
central band

Sort into band: `MYTLNWQPPYDWSWMLGFLAARAVSSVETVADSYYARSLAVGEYRGVVTAIPDIARHTLHINLSAGLEPVAAECLAKMSRLFDLQCNPQIVNGALGRLGAARPGLRLPGCVDAFEQGVRAILGQLVSVAMAAKLTARVAQLYGERLDDFPEYICFPTPQRLAAADPQALKALGMPLKRAEALIHLANAALEGTLPMTIPGDVEQAMKTLQTFPGIGRWTANYFALRGWQAKDVFLPDDYLIKQRFPGMTPAQIRRYAERWKPWRSYALLHIWYTEGWQPDEA`
lower band
